Origin of the recorded values: paper PMC4888459

# subject of test: AgD from S. mutans (agmatine deiminase) (Streptococcus mutans, UniProt Q8DW17)
# Sequence (Q8DW17 whole entry): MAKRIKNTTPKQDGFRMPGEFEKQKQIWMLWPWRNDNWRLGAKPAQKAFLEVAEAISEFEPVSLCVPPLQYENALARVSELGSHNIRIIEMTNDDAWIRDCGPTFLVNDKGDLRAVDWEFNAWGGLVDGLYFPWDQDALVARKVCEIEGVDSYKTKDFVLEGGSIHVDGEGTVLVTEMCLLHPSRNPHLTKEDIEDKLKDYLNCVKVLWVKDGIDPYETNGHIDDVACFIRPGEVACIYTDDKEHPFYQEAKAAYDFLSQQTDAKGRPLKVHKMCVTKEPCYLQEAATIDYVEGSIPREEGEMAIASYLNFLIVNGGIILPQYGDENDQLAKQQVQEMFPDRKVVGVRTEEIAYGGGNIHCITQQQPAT

>  <smiles input>
N=C(N)CCl

>  <IC50>
400 µM

$$$$
